Each recorded value in this set is attributed to patent US20080051429A1.

Biological target: 5-HT2A receptor (Homo sapiens, UniProt P28223)
Construct: expressed in transfected cells; host or cells: NIH3T3 cells, pSI expression vector
Sequence (P28223 whole entry): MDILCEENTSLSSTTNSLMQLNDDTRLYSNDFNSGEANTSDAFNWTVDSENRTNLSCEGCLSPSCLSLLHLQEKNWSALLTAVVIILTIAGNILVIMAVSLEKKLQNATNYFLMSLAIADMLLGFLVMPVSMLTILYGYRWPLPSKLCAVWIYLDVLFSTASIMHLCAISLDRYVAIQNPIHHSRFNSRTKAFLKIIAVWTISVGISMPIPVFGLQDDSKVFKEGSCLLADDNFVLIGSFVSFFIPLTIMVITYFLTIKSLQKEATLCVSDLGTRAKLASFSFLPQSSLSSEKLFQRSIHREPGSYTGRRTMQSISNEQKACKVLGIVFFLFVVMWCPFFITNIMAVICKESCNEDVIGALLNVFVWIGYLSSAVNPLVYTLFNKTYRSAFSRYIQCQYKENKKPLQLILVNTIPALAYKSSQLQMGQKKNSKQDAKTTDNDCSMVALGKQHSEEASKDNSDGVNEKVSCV
Assay: R-SAT functional receptor assay
Assay type: cell-based
Conditions: 120 h, read-out: Percent Efficacy
Experimental: The functional receptor assay, Receptor Selection and Amplification Technology (R-SAT), was used (with minor modifications from that previously described U.S. Pat. No. 5,707,798) to screen compounds for efficacy at the 5-HT2A receptor. […] Media was then removed from the plates and marker gene activity was measured by the addition of the beta-galactosidase substrate ONPG (in PBS with 5% NP-40). […] All data were analyzed using the computer program XLFit (IDBSm). […]
Structures can show the parent of a compound that is named as a salt.
quantity.name: Emax

Quick request: Emax for each listed item, please.
1. Cc1ccc(CN(C(=O)Cc2ccc(Br)cc2)C2CCN(C)CC2)cc1 [Example 57MBT70-1D, hydrochloride]
2. COc1ccc(CC(=O)N(Cc2ccc(C)cc2)C2CCN(C)CC2)cc1C [Example 57MBT70-8D, hydrochloride]
3. Cc1ccc(CN(C(=O)Cc2ccc(I)cc2)C2CCN(C)CC2)cc1 [Example 57MBT70-2D, hydrochloride]
4. COc1ccc(CC(=O)N(Cc2ccc(C)cc2)C2CCN(Cc3ccccc3)CC2)cc1 [Example 26HCH17, hydrochloride]

A.
["120%", "119%", "105%", "94%"]

###

biological target: 5-HT2A receptor (Homo sapiens, UniProt P28223); construct: expressed in transfected cells; host or cells: NIH3T3 cells, pSI expression vector; assay: R-SAT functional receptor assay; type: cell-based; details: Table 6; read-out: 5HT2A pIC50 (converted)
Counter-ions that a name gives are not always drawn.
quantity.name: IC50
Give the number first and the unit second.

// below: answered compounds
1. CC(C)COc1ccc(CN2C(=O)OC3(CCN(CCN4CCNC4=O)CC3)C2Cc2ccc(F)cc2)cc1 (stereo not shown) [Example 38-PH17-HCl]    1.58 nM
2. COc1ccc(CN2C(=O)OC3(CCN(C)CC3)C2Cc2ccc(C)cc2)cc1 (stereo not shown) [Example 69NLS35, hydrochloride]    0.251 nM

Batch request: IC50 for each of the following compounds.
1. CC(C)COc1ccc(CN2C(=O)OC3(CCN(C(C)C)CC3)C2Cc2ccc(F)cc2)cc1 (stereo not shown) [Example 69NLS85, hydrochloride]
2. CC(C)COc1ccc(CN2C(=O)OC3(CCN(CC4CC4)CC3)C2Cc2ccc(F)cc2)cc1 (stereo not shown) [Example 38-PH16-HCl]
3. CC(C)COc1ccc(CN2C(=O)OC3(CCN(CCCN4CCOCC4)CC3)C2Cc2ccc(F)cc2)cc1 (stereo not shown) [Example 69NLS83, dihydrochloride]
4. CN1CCC2(CC1)OC(=O)N(Cc1ccc(OCC3CC3)cc1)C2Cc1ccc(F)cc1 (stereo not shown) [Example 69NLS52, hydrochloride]
5. CC(C)COc1ccc(CN2C(=O)OC3(CCN(CCC4OCCO4)CC3)C2Cc2ccc(F)cc2)cc1 (stereo not shown) [Example 69NLS79-II, hydrochloride]

A.
["0.794 nM", "7.94 nM", "10 nM", "0.251 nM", "7.94 nM"]

###

Kindly supply the reported Emax values for the records listed here.
target: 5-HT2A receptor (Homo sapiens, UniProt P28223); construct: expressed in transfected cells; host or cells: NIH3T3 cells, pSI expression vector; experiment: R-SAT functional receptor assay; assay type: cell-based; conditions: 120 h, read-out: Percent Efficacy, compared to ritanserin
Answers are plain numbers, in %.

Example entries begin here.
1. CCN1CCC(N(Cc2ccc(C)cc2)C(=O)Cc2ccc(Cl)cc2)CC1    112
2. COc1ccc(CNC(=O)N(Cc2ccc(C)cc2)C2CCN(C(C)(C)C)CC2)cc1    111
3. CCOc1ccc(CC(=O)N(CCc2ccc(F)cc2)C2CCN(C)CC2)cc1    95

Give Emax for each listed item.
1. COc1ccc(CC(=O)N(Cc2ccc(C)cc2)C2CCN(C3CCCC3)CC2)cc1
2. Cc1ccc(CN(C(=O)NCc2ccccc2)C2CCN(C)CC2)cc1

A.
1. 109
2. 117

###

target: 5-HT2A receptor (Homo sapiens, UniProt P28223); construct: expressed in transfected cells; host or cells: NIH3T3 cells, pSI expression vector; experiment: R-SAT functional receptor assay; format: cell-based; settings: 120 h, compared to ritanserin; read-out: 5HT2A % inhibition
Where a name gives a salt, the structure may show the parent alone.
quantity.name: Emax (%)
Answers are plain numbers, in %.

Previously resolved entries follow.
1. CC(C)COc1ccc(CN2C(=O)OC3(CCN(C(C)C)CC3)C2Cc2ccc(F)cc2)cc1 (stereo not drawn) [Example 69NLS85, hydrochloride]    95
2. CC(C)COc1ccc(CN2C(=O)OC3(CCN(CCC4OCCO4)CC3)C2Cc2ccc(F)cc2)cc1 (stereo not drawn) [Example 69NLS79-II, hydrochloride]    101
3. CC(C)COc1ccc(CN2C(=O)OC3(CCN(CCN4CCNC4=O)CC3)C2Cc2ccc(F)cc2)cc1 (stereo not drawn) [Example 38-PH17-HCl]    84

Hello, I would appreciate it if you could give Emax for each entry below.
1. CC(C)COc1ccc(CN2C(=O)OC3(CCNCC3)C2Cc2ccc(F)cc2)cc1 (stereo not drawn) [Example 69NLS81, hydrochloride]
2. Cc1ccc(CC2N(Cc3ccc(OC(F)(F)F)cc3)C(=O)OC23CCN(C)CC3)cc1 (stereo not drawn) [Example 69NLS21, hydrochloride]
3. CCN1CCC2(CC1)OC(=O)N(Cc1ccc(OCC(C)C)cc1)C2Cc1ccc(F)cc1 (stereo not drawn) [Example 38-PH20, hydrochloride]
4. CC(C)COc1ccc(CN2C(=O)OC3(CCN(CCCN4CCOCC4)CC3)C2Cc2ccc(F)cc2)cc1 (stereo not drawn) [Example 69NLS83, dihydrochloride]
5. CN1CCC2(CC1)OC(=O)N(Cc1ccc(OCC3CC3)cc1)C2Cc1ccc(F)cc1 (stereo not drawn) [Example 69NLS52, hydrochloride]
6. COc1ccc(CN2C(=O)OC3(CCN(C)CC3)C2Cc2ccc(C)cc2)cc1 (stereo not drawn) [Example 69NLS35, hydrochloride]

A.
1: 85; 2: 83; 3: 100; 4: 85; 5: 87; 6: 103
